B1: TNXB (parent)
chain: FSEIRETSAKVNWMPPPSRADSFK

variants of: B1; assay: protein stability index of a GFP-peptide fusion (GPS, HEK-293T) (PSI 1-6); higher = more stable; details: c terminus: a fixed tail appended;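 also: lentivirally expressed fusions sorted by FACS into six bins by GFP to DsRed ratio, PSI derived from sequencing read proportions per bin multiplied by bin number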
reported_metric: protein stability index
Could you keep your reply to the number by itself?

Short answer for `P16S` : protein stability index was 3.69

Short answer for `W13I` : protein stability index was 4.47

Short answer for `R5C` : protein stability index was 2.83

Short answer for `S22P` : protein stability index was 3.36

Short answer for `V11R` : protein stability index was 3.02

Short answer for `W13E` : protein stability index was 4.94

Short answer for `A20P` : protein stability index was 3.13

Short answer for `S2L` : protein stability index was 2.97

Short answer for `M14C` : protein stability index was 2.63

Short answer for `I4R` : protein stability index was 3

Short answer for `E3W` : protein stability index was 2.6
